IC50 reference
# target_desc: Histone deacetylase
# procedure_text: Inhibition of total HDAC in human HUVEC cells using Boc-Lys(Ac)-AMC as substrate preincubated for 12 hrs followed by substrate addition measured after 6 hrs by microtiter plate reader analysis
# Assay type: cell-based
readout_label: IC50 (nM)

>>> print(df.to_string())
                                 item_smiles          target_desc  readout_label  value
 0  Cc1nnc2n1-c1sc3c(c1C(c1ccc(Cl)cc1)=N[C@H]2CC(=O)Nc1ccc(C(=O)NO)cc1)CCCC3  Histone deacetylase           IC50     47
 1  Cc1nnc2n1-c1ccccc1C(c1ccc(Cl)cc1)=N[C@H]2CC(=O)Nc1ccc(C(=O)NO)cc1  Histone deacetylase           IC50    160
 2  Cc1nnc2n1-c1sc3c(c1C(c1ccc(Cl)cc1)=N[C@H]2CC(=O)Nc1ccc(CC(=O)NO)cc1)CCCC3  Histone deacetylase           IC50   2200
 3  Cc1ccc(C2=N[C@@H](CC(=O)NCc3ccc(C(=O)NO)cc3)c3nnc(C)n3-c3ccccc32)cc1  Histone deacetylase           IC50   5800
 4  Cc1ccc(C2=N[C@@H](CC(=O)Nc3ccc(/C=C/C(=O)NO)cc3)c3nnc(C)n3-c3ccccc32)cc1  Histone deacetylase           IC50    630
 5  Cc1nnc2n1-c1ccccc1C(c1ccccc1)=N[C@H]2CC(=O)Nc1ccc(CC(=O)NO)cc1  Histone deacetylase           IC50   6500
 6  Cc1ccc(C2=N[C@@H](CC(=O)Nc3ccc(C(=O)NO)cc3)c3nnc(C)n3-c3ccccc32)cc1  Histone deacetylase           IC50    130
 7  Cc1nnc2n1-c1ccccc1C(c1ccccc1)=N[C@H]2CC(=O)Nc1ccc(C(=O)NO)cc1  Histone deacetylase           IC50     65
 8  Cc1nnc2n1-c1sc3c(c1C(c1ccc(Cl)cc1)=N[C@H]2CC(=O)Nc1ccc(/C=C/C(=O)NO)cc1)CCCC3  Histone deacetylase           IC50    150
 9  Cc1nnc2n1-c1sc3c(c1C(c1ccc(Cl)cc1)=N[C@H]2CC(=O)NCc1ccc(C(=O)NO)cc1)CCCC3  Histone deacetylase           IC50   4300
10  Cc1nnc2n1-c1ccc(Cl)cc1C(c1ccccc1Cl)=N[C@H]2CC(=O)NCc1ccc(C(=O)NO)cc1  Histone deacetylase           IC50   3400
11  Cc1nnc2n1-c1ccccc1C(c1ccc(Cl)cc1)=N[C@H]2CC(=O)Nc1ccc(/C=C/C(=O)NO)cc1  Histone deacetylase           IC50    420
12  Cc1nnc2n1-c1ccccc1C(c1ccccc1)=N[C@H]2CC(=O)Nc1ccc(/C=C/C(=O)NO)cc1  Histone deacetylase           IC50     16
13  Cc1nnc2n1-c1ccc(Cl)cc1C(c1ccccc1Cl)=N[C@H]2CC(=O)Nc1ccc(CC(=O)NO)cc1  Histone deacetylase           IC50   4400
14  Cc1nnc2n1-c1ccc(Cl)cc1C(c1ccccc1Cl)=N[C@H]2CC(=O)Nc1ccc(/C=C/C(=O)NO)cc1  Histone deacetylase           IC50     35
15  Cc1ccc(C2=N[C@@H](CC(=O)Nc3ccc(CC(=O)NO)cc3)c3nnc(C)n3-c3ccccc32)cc1  Histone deacetylase           IC50   3800

---

IC50 at 48 h overview
# procedure_text: in vitro
# test_context: human, HUVEC cells
# Description: Cytotoxicity against HUVECs assessed as inhibition of cell growth incubated for 48 hrs by CCK8 assay
readout_label: IC50 at 48 h (µM)

In [3]: df
Out[3]:
                                 item_smiles  readout_label  unit_of_measurement  value
 0  Cc1nnc2n1-c1ccccc1C(c1ccccc1)=N[C@H]2CC(=O)Nc1ccc(C(=O)NO)cc1   IC50 at 48 h                   µM     25
 1  Cc1nnc2n1-c1ccccc1C(c1ccccc1)=N[C@H]2CC(=O)NCc1ccc(C(=O)NO)cc1   IC50 at 48 h                   µM     17
 2  Cc1ccc(C2=N[C@@H](CC(=O)Nc3ccc(CC(=O)NO)cc3)c3nnc(C)n3-c3ccccc32)cc1   IC50 at 48 h                   µM     33
 3  Cc1nnc2n1-c1ccccc1C(c1ccccc1)=N[C@H]2CC(=O)Nc1ccc(/C=C/C(=O)NO)cc1   IC50 at 48 h                   µM     14
 4  Cc1nnc2n1-c1ccccc1C(c1ccc(Cl)cc1)=N[C@H]2CC(=O)Nc1ccc(/C=C/C(=O)NO)cc1   IC50 at 48 h                   µM    8.1
 5  Cc1nnc2n1-c1sc3c(c1C(c1ccc(Cl)cc1)=N[C@H]2CC(=O)Nc1ccc(CC(=O)NO)cc1)CCCC3   IC50 at 48 h                   µM    5.9
 6  Cc1nnc2n1-c1ccc(Cl)cc1C(c1ccccc1Cl)=N[C@H]2CC(=O)Nc1ccc(CC(=O)NO)cc1   IC50 at 48 h                   µM     19
 7  Cc1nnc2n1-c1ccccc1C(c1ccc(Cl)cc1)=N[C@H]2CC(=O)Nc1ccc(CC(=O)NO)cc1   IC50 at 48 h                   µM     19
 8  Cc1nnc2n1-c1ccccc1C(c1ccccc1)=N[C@H]2CC(=O)Nc1ccc(CC(=O)NO)cc1   IC50 at 48 h                   µM     24
 9  Cc1nnc2n1-c1ccc(Cl)cc1C(c1ccccc1Cl)=N[C@H]2CC(=O)NCc1ccc(C(=O)NO)cc1   IC50 at 48 h                   µM     48
10  Cc1nnc2n1-c1ccccc1C(c1ccc(Cl)cc1)=N[C@H]2CC(=O)NCc1ccc(C(=O)NO)cc1   IC50 at 48 h                   µM     23
11  Cc1nnc2n1-c1sc3c(c1C(c1ccc(Cl)cc1)=N[C@H]2CC(=O)Nc1ccc(/C=C/C(=O)NO)cc1)CCCC3   IC50 at 48 h                   µM    4.7
12  Cc1nnc2n1-c1ccc(Cl)cc1C(c1ccccc1Cl)=N[C@H]2CC(=O)Nc1ccc(/C=C/C(=O)NO)cc1   IC50 at 48 h                   µM    7.3
13  Cc1nnc2n1-c1sc3c(c1C(c1ccc(Cl)cc1)=N[C@H]2CC(=O)Nc1ccc(C(=O)NO)cc1)CCCC3   IC50 at 48 h                   µM    2.6
14  Cc1nnc2n1-c1sc3c(c1C(c1ccc(Cl)cc1)=N[C@H]2CC(=O)NCc1ccc(C(=O)NO)cc1)CCCC3   IC50 at 48 h                   µM     18
15  Cc1ccc(C2=N[C@@H](CC(=O)Nc3ccc(/C=C/C(=O)NO)cc3)c3nnc(C)n3-c3ccccc32)cc1   IC50 at 48 h                   µM     14
16  Cc1sc2c(c1C)C(c1ccc(Cl)cc1)=N[C@@H](CC(=O)OC(C)(C)C)c1nnc(C)n1-2   IC50 at 48 h                   µM   0.58

---

Each item that follows carries a reported IC50 at 48 h.
# procedure_text: in vitro
# test_context: human, HUVEC cells
readout_label: IC50 at 48 h (µM)

>>> df
                                item_smiles  value
0  Cc1nnc2n1-c1ccccc1C(c1ccc(Cl)cc1)=N[C@H]2CC(=O)Nc1ccc(C(=O)NO)cc1     34
1  Cc1ccc(C2=N[C@@H](CC(=O)Nc3ccc(C(=O)NO)cc3)c3nnc(C)n3-c3ccccc32)cc1    2.8
2  Cc1ccc(C2=N[C@@H](CC(=O)NCc3ccc(C(=O)NO)cc3)c3nnc(C)n3-c3ccccc32)cc1     20

---

# target_desc: Histone deacetylase
# procedure_text: Inhibition of total HDAC in human HUVEC cells using Boc-Lys(Ac)-AMC as substrate preincubated for 12 hrs followed by substrate addition measured after 6 hrs by microtiter plate reader analysis
# Format: cell-based
readout_label: IC50 (nM)

>>> print(df.to_string())
                                item_smiles  readout_label  unit_of_measurement  value
0  Cc1nnc2n1-c1ccccc1C(c1ccc(Cl)cc1)=N[C@H]2CC(=O)Nc1ccc(CC(=O)NO)cc1           IC50                   nM   2800
1  Cc1nnc2n1-c1ccccc1C(c1ccc(Cl)cc1)=N[C@H]2CC(=O)NCc1ccc(C(=O)NO)cc1           IC50                   nM   2700
2  Cc1nnc2n1-c1ccccc1C(c1ccccc1)=N[C@H]2CC(=O)NCc1ccc(C(=O)NO)cc1           IC50                   nM   2800
